test: clinical; parameters: species or system human; settings: human, in vivo, iv
Peptide text beside a SMILES is read from it.
RECORDED_ENDPOINT: Tmax (h)
Express it in h; write the number only.

### Prompt Would you mind telling me what Tmax value was observed for CC(=O)N[C@H](C(=O)N[C@H](CO)C(=O)N[C@H]1CCNC(=O)[C@H]([C@@H](C)O)NC(=O)[C@H](CCN)NC(=O)[C@H](CCN)NC(=O)[C@H](CC(C)C)NC(=O)[C@@H](Cc2ccccc2)NC(=O)[C@H](CCN)NC1=O)[C@@H](C)O [SPR741] (HELM PEPTIDE1{[ac].T.[dS].[Dab].[Dab].[dF].L.[Dab].[Dab].T}$PEPTIDE1,PEPTIDE1,4:R3-10:R2$$$V2.0) ?
### Response 1
